target: DPP-4 (Homo sapiens); construct: purchased Sigma-Aldrich MAK203; experiment: Dipeptidyl peptidase-4 inhibition assay (DPP-4 Inhibitor Screening Kit); type: biochemical; settings: read-out: IC50 for the Inhibitory Activity Assays, DPP-4 (converted)
Sequence (P27487 whole entry, species assumed): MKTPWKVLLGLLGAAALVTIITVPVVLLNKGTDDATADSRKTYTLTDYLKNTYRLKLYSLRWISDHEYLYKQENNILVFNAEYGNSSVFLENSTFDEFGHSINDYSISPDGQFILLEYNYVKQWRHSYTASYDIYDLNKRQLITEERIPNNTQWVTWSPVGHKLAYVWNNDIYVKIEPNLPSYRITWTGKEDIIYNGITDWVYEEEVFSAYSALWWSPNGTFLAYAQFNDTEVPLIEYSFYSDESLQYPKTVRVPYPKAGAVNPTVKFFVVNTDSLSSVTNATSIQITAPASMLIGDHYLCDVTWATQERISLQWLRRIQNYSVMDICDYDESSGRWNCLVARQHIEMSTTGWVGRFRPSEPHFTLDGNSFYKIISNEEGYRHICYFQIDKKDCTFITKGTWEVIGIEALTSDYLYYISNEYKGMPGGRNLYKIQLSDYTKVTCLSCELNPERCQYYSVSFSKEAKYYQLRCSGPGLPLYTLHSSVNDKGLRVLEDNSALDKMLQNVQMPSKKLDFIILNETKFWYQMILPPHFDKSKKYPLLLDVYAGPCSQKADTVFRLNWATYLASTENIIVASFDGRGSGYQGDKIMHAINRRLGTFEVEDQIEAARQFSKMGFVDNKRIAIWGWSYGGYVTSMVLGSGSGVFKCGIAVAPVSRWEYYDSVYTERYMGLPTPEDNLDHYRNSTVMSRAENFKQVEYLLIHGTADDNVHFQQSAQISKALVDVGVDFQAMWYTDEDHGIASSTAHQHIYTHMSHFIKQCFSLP
Provide the recorded IC50 for the entries that follow.
Remember to quote the unit after the number.

Request the reported IC50 associated with `Cc1cc(/C=C2\SC(=O)N(CC(=O)N3CCCC3)C2=O)c(C)n1-c1ccccc1`
78 µM

Proceed to `COc1cc(OC)c(/C=C2/SC(=O)N(CC(=O)N3CCN(c4ccccc4)CC3)C2=O)c(OC)c1`
147 µM

Then `Cc1cc(/C=C2\SC(=O)N(CC(=O)O)C2=O)c(C)n1-c1ccccc1` ?
213 µM

Next entry: `Cc1cc(/C=C2/S/C(=N\c3ccccc3)NC2=O)c(C)n1-c1ccccc1`
192 µM
